- Test system: SNB-19 CNS
- method notes: NCI-60 one-dose screen, 48 h (100 = growth as untreated, 0 = no growth, -100 = all killed)
- recorded conditions: 10 µM unless noted
This is part of a sample that, as a whole, favours compounds with a hit. Of some 83,000 tested, about 20% had one in any assay.
Values of growth greater than or equal to 30% map to T; values below map to F.

| molecule | assigned label |
| --- | --- |
| CCCCC1=c2c([nH]c3ccc(OC)cc23)=NC2C=CC=NC12 (stereo not given) | T |
| COc1ccc2c(c1)C1(C(=O)N2)C(C#N)=C(c2ccccc2)Nc2c1c(-c1ccccc1)nn2-c1ccccc1 (stereo not given) | T |
| CCOC(=O)c1ccc(Nc2ncnc3ccc(NC(=O)c4ccccc4)cc23)cc1 | T |
| O=C(Nc1ccc2ncnc(Nc3cccc(C(F)(F)F)c3)c2c1)c1cccs1 | T |
| COc1cccc2c1-c1ccccc1C2=O | F |
| CCCCc1n(Cc2ccc3ccccc3n2)cc[n+]1Cc1ccc2ccccc2c1 | F |
| NC(=O)c1ccc2nc3c(n2c1)C(=O)C(=O)c1ccccc1-3 | F |
| COc1cc(C(=O)Nc2cc(OC)c3ccn(C)c3c2)cc2c1C[C@]1(C)CC[C@@H](O)C(C)(C)[C@H]1O2 | T |
| CCOC(=O)c1c(C)nc2c(c1N)CC(=O)N2CCc1ccccc1 | F |

###

- System: MCF7 breast
- method notes: NCI-60 one-dose screen, 48 h (100 = growth as untreated, 0 = no growth, -100 = all killed)
- recorded conditions: 10 µM unless noted
This is part of a sample that, as a whole, favours compounds with a hit. Of some 83,000 tested, about 20% had one in any assay.
observed property: growth (%)

| compound | experimental target | observed property | unit text | measurement |
| --- | --- | --- | --- | --- |
| O=C(C[n+]1cccc2cc(Cl)ccc21)c1ccc2c(c1)CCCC2 | MCF7 breast | growth | % | 4.57 |
| C[C@]12CC[C@@H]3c4ccc(O)cc4CC[C@H]3[C@@H]1C[C@H](O)C2 | MCF7 breast | growth | % | 61 |
| O=C(CCCCCCCCC(=O)Nc1cccc(C2=NCCN2)c1)Nc1cccc(C2=NCCN2)c1 | MCF7 breast | growth | % | 49.9 |
| COC1=CC2C=C(C3N(c4ccccc4)NC(=O)[C@@H]4CCCN34)C(=O)NC2C=C1 (stereo not given in full) | MCF7 breast | growth | % | 94.1 |
| COCCOC(=O)COc1ccc(OC)cc1 | MCF7 breast | growth | % | 97.3 |
| Nc1c(C(=O)Nc2ccccn2)sc2nc3c(cc12)CCCCC3 | MCF7 breast | growth | % | 20.1 |
| O=CN1N=C(c2ccc(Cl)cc2)CC1c1cccc(Nc2ccnc3cc(C(F)(F)F)ccc23)c1 (stereo not given) | MCF7 breast | growth | % | 38 |
| COc1ccc(-c2cc(-c3nnc(SCC(=O)Nc4ccc(/C(C)=N\O)cc4)o3)c3ccccc3n2)cc1 | MCF7 breast | growth | % | 96.1 |
| Cc1cc(Cl)cc(CN(Cc2ccccc2)Cc2c(O)ccc3ccccc23)c1O | MCF7 breast | growth | % | 85 |
| CCOC(=O)C1=C(C)n2nc(CC#N)c(C#N)c2NC1c1ccc(Cl)cc1 (stereo not given) | MCF7 breast | growth | % | 90.2 |
| C=C1C(=O)O[C@H]2[C@H]1CC/C(C=Nc1c(N)cc(C(F)(F)F)cc1Br)=C\CC[C@@]1(C)O[C@@H]21 | MCF7 breast | growth | % | -2.09 |
| CCCCCCCc1n(Cc2ccc3ccccc3c2)c2ccccc2[n+]1Cc1ccc2ccccc2c1 | MCF7 breast | growth | % | -64.7 |
| C=C(C)[C@@H]1CCC=C2CC[C@]3(C)[C@H](CC[C@@H]4[C@@]5(C)CCCNC(C)(C)[C@@H]5CC[C@]43C)[C@H]21 | MCF7 breast | growth | % | 0.921 |
| CCCn1c2cc(OCc3cn(-c4ccc(Br)cc4)nn3)ccc2c2ccnc(C)c21 | MCF7 breast | growth | % | 62.4 |
| CCOCCc1c(O)nc(SC)[nH]c1=O | MCF7 breast | growth | % | 99.7 |
